- assay-summary: Clinical bioequivalence study of baclofen injection compared to baclofen tablets in healthy adult volunteers
- Format: in vivo, human
- condition-info: human, plasma, other: oral tablet versus intravenous infusions; 20 mg oral tablet vs IV infusions
parameter: difference in median Tmax (oral tablet earlier than IV infusions)

compound: NCC(CC(=O)O)c1ccc(Cl)cc1 (stereo not shown) [baclofen, 4-amino-3-[4-chlorophenyl] butanoic acid]
observed-measurement: 2 to 3 h

* * *

- assay-summary: Clinical bioequivalence study of baclofen injection compared to baclofen tablets in healthy adult volunteers
- Format: in vivo, human
- condition-info: human, plasma; across IV infusions; read-out: mean volume of distribution (Vz)
parameter: Vd

molecule: NCC(CC(=O)O)c1ccc(Cl)cc1 (stereo not shown) [baclofen, 4-amino-3-[4-chlorophenyl] butanoic acid]
parameter: Vd
observed-measurement: 69.8 to 71.4 L
